assayComment: Stability test of complexed and uncomplexed potassium clavulanate in artificial gastric juice (pH 1.2, 37° C.)
Type: physicochemical
measurementSetup: artificial gastric juice; 30 min thermostating, pH 1.2, 37° C., KA 4 mg/ml; read-out: KA (undecomp.) as to the initial KA conc. (100%) in samples
valueKind: remaining at 0.5 h (%)
Note: unit % is implicit; provide only the numeric part.

q: Request the reported remaining at 0.5 h associated with O=C(O)[C@H]1/C(=C/CO)O[C@@H]2CC(=O)N21 [KK, potassium clavulanate]
a: 1.3
